biological target: cAMP and cAMP-inhibited cGMP 3',5'-cyclic phosphodiesterase 10A (Homo sapiens)
Sequence (Q9Y233 as listed by the source): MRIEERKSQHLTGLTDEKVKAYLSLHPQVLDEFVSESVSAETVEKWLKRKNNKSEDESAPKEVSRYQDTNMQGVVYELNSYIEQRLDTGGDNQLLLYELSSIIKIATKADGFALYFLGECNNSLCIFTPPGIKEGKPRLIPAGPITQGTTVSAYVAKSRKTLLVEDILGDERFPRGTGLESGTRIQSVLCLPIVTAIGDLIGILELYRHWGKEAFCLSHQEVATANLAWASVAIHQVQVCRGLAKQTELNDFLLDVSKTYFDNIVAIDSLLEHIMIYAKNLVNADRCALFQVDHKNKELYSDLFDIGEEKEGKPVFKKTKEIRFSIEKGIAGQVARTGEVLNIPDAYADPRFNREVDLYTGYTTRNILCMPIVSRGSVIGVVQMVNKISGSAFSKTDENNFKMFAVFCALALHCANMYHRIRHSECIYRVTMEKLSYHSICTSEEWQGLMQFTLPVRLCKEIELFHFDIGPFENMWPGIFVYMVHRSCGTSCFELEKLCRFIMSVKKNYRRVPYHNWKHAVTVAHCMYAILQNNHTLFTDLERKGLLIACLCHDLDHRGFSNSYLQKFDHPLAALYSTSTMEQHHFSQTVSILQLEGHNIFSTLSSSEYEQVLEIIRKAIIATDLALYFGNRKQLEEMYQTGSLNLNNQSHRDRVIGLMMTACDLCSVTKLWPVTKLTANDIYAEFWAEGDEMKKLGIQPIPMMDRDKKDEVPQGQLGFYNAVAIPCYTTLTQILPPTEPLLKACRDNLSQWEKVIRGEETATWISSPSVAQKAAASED
pIC50: −log10 of the molar value.
// label = Condition met if pIC50 is not less than 6, otherwise Condition not met

Data request: Decide: pIC50 of Cn1nc(NC(=O)c2nc(C3CC3)ccc2Nc2cncnc2)cc1-c1ccccn1 [US8470820, 63] >= 6?
Data returned: Condition met

Data request: Decide: pIC50 of CNC(=O)c1c(NC(=O)c2nc(C3CC3)ccc2Nc2cncnc2)cnn1C [Roche-Dataset for PDE10A, Compound 1053] >= 6?
Data returned: Condition met

Data request: Decide: pIC50 of Cc1ncn(-c2ccccc2)c1C(=O)Nc1cc(-c2ccccn2)nn1C [Roche-Dataset for PDE10A, Compound 994] >= 6?
Data returned: Condition not met

Data request: Decide: pIC50 of COc1ccccc1-c1nc2cc(NC(=O)c3c(C(=O)O)cnn3C)ccn2n1 [Roche-Dataset for PDE10A, Compound 356] >= 6?
Data returned: Condition met

Data request: Decide: pIC50 of Cc1ncc(C)n2nc(CCc3nc(N4CCC[C@@H]4C)nn3C)nc12 [Roche-Dataset for PDE10A, Compound 269] >= 6?
Data returned: Condition met
